# experimentalSystem: FcDH (Gluconobacter thailandicus, UniProt A0ABQ0IZX0)
# Sequence (A0ABQ0IZX0 entry or part of it): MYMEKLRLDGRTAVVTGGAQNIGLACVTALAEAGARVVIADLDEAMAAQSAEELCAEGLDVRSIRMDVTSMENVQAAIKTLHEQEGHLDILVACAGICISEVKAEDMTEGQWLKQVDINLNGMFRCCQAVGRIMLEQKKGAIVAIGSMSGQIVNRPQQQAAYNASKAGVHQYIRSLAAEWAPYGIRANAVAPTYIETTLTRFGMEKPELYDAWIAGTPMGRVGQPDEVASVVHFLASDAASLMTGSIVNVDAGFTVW
# procedureDetails: Bivalent metal ion specificity of FcDH
# Type: biochemical, Gluconobacter oxydans IFO 3255
# studyConditions: 5 mM bivalent metal ion or EDTA
testReadout: effect on FcDH activity

Observe how each entry below is paired with its result.
compound: [Cl-].[Cl-].[Mg+2] [MgCl2]
effect on FcDH activity: activation effect

compound: [Ca+2].[Cl-].[Cl-] [CaCl2]
effect on FcDH activity: activation effect

compound: [Cl][Mn][Cl] [MnCl2]
effect on FcDH activity: activation effect

compound: [Cl][Cu][Cl] [CuCl2]
effect on FcDH activity: inhibitory effect

Could you now consider this next compound?
(Q) I'd like to know its effect on FcDH activity. The compound in question is O=S(=O)([O-])[O-].[Zn+2] [ZnSO4]
(A) inhibitory effect

====

# experimentalSystem: FcDH (Gluconobacter thailandicus)
# procedureDetails: Bivalent metal ion specificity of FcDH
# Assay type: biochemical, Gluconobacter oxydans IFO 3255
# studyConditions: 5 mM bivalent metal ion or EDTA; relative to specific activity with MnCl2
Quick reference: RELATIVE ACTIVITY (%) of the listed items.
Return type: number; implicit unit %.

Observe how each entry below is paired with its result.
querySmiles: [Cl][Cu][Cl]
measuredValue: 5.0
//
querySmiles: [Cl][Ni][Cl]
measuredValue: 42.4

(Q) I'd like to know its RELATIVE ACTIVITY (%). The molecule in question is O=S(=O)([O-])[O-].[Zn+2]
(A) 11.7

(Q) I'd like to know its RELATIVE ACTIVITY (%). The molecule in question is [Cl][Mn][Cl]
(A) 100.0

(Q) I'd like to know its RELATIVE ACTIVITY (%). The molecule in question is [Ca+2].[Cl-].[Cl-]
(A) 89.9

(Q) I'd like to know its RELATIVE ACTIVITY (%). The molecule in question is [Cl-].[Cl-].[Mg+2]
(A) 93.7
